In this section we review reported Luciferase Assay % Lum values for a set of compounds.
# measuredOn: full-length P. pyralis luciferase (Photinus pyralis, UniProt P08659, K549A/L550V/N119G/N50D/S548I)
# Sequence (P08659 whole entry N50D/N119G/S548I/K549A/L550V, looked up): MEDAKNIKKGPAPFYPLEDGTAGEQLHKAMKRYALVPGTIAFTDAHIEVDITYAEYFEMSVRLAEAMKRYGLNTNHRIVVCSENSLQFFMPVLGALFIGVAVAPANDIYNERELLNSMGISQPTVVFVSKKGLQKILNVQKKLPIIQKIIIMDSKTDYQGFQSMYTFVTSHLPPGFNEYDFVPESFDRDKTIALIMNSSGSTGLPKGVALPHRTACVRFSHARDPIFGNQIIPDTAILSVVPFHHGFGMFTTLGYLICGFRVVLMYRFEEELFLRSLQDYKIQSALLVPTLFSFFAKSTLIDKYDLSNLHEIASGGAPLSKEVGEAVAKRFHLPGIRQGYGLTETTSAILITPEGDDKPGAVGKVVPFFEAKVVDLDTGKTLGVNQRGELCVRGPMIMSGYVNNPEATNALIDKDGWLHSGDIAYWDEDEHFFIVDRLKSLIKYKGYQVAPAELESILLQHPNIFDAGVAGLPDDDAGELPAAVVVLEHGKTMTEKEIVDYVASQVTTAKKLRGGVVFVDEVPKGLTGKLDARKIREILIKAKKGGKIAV
# Format: cell-based
# particulars: CC_NCI screening; full-length luciferase counter-screen luminescence; normalized to on-plate 0.3% DMSO controls
// note: answer is a bare numeric in %

Reference set, count: 5
>  <compound>
O=c1cc(-c2cccc3c2Sc2ccccc2S3)oc(N2CCOCC2)c1

>  <Luciferase Assay % Lum (%)>
33.90

$$$$
>  <compound>
COc1cc2/c(=N/c3ccc(Br)cc3F)nc[nH]c2cc1OCC1CCN(C)CC1

>  <Luciferase Assay % Lum (%)>
102.19

$$$$
>  <compound>
Cc1ccc(NC(=O)c2ccc(CN3CCN(C)CC3)cc2)cc1Nc1nc(-c2cccnc2)cs1

>  <Luciferase Assay % Lum (%)>
52.92

$$$$
>  <compound>
CC(=O)Nc1cccc(-n2c(=O)n(C3CC3)c(=O)c3c(Nc4ccc(I)cc4F)n(C)c(=O)c(C)c32)c1

>  <Luciferase Assay % Lum (%)>
95.81

$$$$
>  <compound>
CN(N=O)C(=O)N[C@@H](C=O)[C@@H](O)[C@H](O)[C@H](O)CO

>  <Luciferase Assay % Lum (%)>
99.54

$$$$

Q: Can you look up the measured Luciferase Assay % Lum of Cc1nc(Nc2ncc(C(=O)Nc3c(C)cccc3Cl)s2)cc(N2CCN(CCO)CC2)n1 [DASATINIB] for me?
A: 82.88

Q: Can you look up the measured Luciferase Assay % Lum of `O=C(c1cc(Cc2n[nH]c(=O)c3ccccc23)ccc1F)N1CCN(C(=O)C2CC2)CC1` for me?
A: 105.07

Q: Can you look up the measured Luciferase Assay % Lum of CCOC(=O)C1=C(N)Oc2ccc(Br)cc2C1C(C#N)C(=O)OCC (centres unmarked) for me?
A: 99.78

====

# measuredOn: FGF14:Nav1.6 C-tail complex (Homo sapiens, UniProt Q92915+Q9UQD0)
# Construct: polymerase chain reaction (PCR) amplification of the FGF14 open reading frame (nt 1–855); C-terminal fragment of Nav1.6 (amino acids 1763–1976) fused with CD4ΔC-tail (amino acids 1–395); expressed in transfected cells
# Sequence (Q92915 1-252 isoform Q92915-2): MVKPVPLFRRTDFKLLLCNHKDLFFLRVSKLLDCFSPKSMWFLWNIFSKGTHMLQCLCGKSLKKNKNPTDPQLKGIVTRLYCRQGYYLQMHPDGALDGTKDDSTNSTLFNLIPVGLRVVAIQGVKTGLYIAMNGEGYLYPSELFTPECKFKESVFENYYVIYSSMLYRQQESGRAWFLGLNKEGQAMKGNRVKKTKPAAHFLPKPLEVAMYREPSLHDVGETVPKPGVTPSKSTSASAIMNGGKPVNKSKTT
# Sequence (Q9UQD0 1763-1976 limits assumed): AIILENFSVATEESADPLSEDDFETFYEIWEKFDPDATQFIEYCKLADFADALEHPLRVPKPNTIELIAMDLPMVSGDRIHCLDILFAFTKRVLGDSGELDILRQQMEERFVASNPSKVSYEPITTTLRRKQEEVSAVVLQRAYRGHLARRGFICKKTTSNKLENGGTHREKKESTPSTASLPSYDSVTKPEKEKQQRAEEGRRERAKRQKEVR
# measurementProtocol: Split-luciferase complementation assay (LCA) in Clone V double stable HEK293 cells
# Assay type: cell-based
# particulars: CC_NCI screening, biological replicate Set 1; normalized to on-plate 0.3% DMSO controls (n=16 per plate)
In this section we review reported Split Luciferase Assay % Lum Set 1 values for a set of compounds.
// note: answer is a bare numeric in %

Reference set, count: 2
>  <compound>
O=C1NC(=O)/C(=C/c2ccc(-c3ccc(F)cc3O)o2)S1 [AS 252424]

>  <endpointValue>
59.03

$$$$
>  <compound>
CC(=O)O[C@]1(C(C)=O)CC[C@H]2[C@@H]3C=C(C)C4=CC(=O)CC[C@]4(C)[C@H]3CC[C@@]21C [Megestrol acetate]

>  <endpointValue>
152.52

$$$$

Consider the record given below.
Q: For FGF14:Nav1.6 C-tail complex (Homo sapiens, UniProt Q92915+Q9UQD0), provide Split Luciferase Assay % Lum Set 1 of CC(=O)O[C@H]1C(=O)[C@@]2(C)[C@H]([C@H](OC(=O)c3ccccc3)[C@]3(O)C[C@H](OC(=O)[C@H](O)[C@@H](NC(=O)c4ccccc4)c4ccccc4)C(C)=C1C3(C)C)[C@]1(OC(C)=O)CO[C@@H]1C[C@@H]2O [Paclitaxel] please.
A: 87.29
